# Experimental target: Sortase A (Staphylococcus aureus, UniProt Q9S446)
# Sequence (Q9S446 whole entry): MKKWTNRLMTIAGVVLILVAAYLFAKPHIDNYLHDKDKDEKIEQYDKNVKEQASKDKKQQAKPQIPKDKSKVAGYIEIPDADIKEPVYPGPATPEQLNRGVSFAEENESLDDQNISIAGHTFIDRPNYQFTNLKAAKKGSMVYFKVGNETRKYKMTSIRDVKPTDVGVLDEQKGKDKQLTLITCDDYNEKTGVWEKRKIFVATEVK
Answer each item with its documented IC50.
Numbers only, in µM.

// solved cases for IC50 follow
Compound	IC50 [µM]
O=C(c1nc(-c2c[nH]c3ccccc23)c[nH]1)c1c[nH]c2ccccc12	48
O=C(c1ncc(-c2c[nH]c3cc(Br)ccc23)[nH]1)c1c[nH]c2ccccc12	48
O=C1N[C@H](c2c[nH]c3cc(Br)ccc23)CN=C1c1c[nH]c2cc(Br)ccc12	178
O=C(c1nc(-c2c[nH]c3cc(Br)ccc23)c[nH]1)c1c[nH]c2cc(O)ccc12	39.6
O=C1NC[C@@H](c2c[nH]c3cc(Br)ccc23)N=C1c1c[nH]c2cc(Br)ccc12	142
CC[C@H](CC[C@@H](C)[C@H]1CC[C@H]2[C@@H]3CC=C4C[C@@H](O[C@@H]5O[C@H](CO)[C@@H](O)[C@H](O)[C@H]5O)CC[C@]4(C)[C@H]3CC[C@]12C)C(C)C [SITOGLUSIDE]	31.7

Below: the item to evaluate.
Sample O=C1N[C@H](c2c[nH]c3cc(Br)ccc23)CN=C1c1c[nH]c2ccccc12 — what was its IC50? 83.6
